The origin of these recorded values is patent US20230183239A1.

Target: ENPP1 (Homo sapiens)
Sequence (P22413 whole entry): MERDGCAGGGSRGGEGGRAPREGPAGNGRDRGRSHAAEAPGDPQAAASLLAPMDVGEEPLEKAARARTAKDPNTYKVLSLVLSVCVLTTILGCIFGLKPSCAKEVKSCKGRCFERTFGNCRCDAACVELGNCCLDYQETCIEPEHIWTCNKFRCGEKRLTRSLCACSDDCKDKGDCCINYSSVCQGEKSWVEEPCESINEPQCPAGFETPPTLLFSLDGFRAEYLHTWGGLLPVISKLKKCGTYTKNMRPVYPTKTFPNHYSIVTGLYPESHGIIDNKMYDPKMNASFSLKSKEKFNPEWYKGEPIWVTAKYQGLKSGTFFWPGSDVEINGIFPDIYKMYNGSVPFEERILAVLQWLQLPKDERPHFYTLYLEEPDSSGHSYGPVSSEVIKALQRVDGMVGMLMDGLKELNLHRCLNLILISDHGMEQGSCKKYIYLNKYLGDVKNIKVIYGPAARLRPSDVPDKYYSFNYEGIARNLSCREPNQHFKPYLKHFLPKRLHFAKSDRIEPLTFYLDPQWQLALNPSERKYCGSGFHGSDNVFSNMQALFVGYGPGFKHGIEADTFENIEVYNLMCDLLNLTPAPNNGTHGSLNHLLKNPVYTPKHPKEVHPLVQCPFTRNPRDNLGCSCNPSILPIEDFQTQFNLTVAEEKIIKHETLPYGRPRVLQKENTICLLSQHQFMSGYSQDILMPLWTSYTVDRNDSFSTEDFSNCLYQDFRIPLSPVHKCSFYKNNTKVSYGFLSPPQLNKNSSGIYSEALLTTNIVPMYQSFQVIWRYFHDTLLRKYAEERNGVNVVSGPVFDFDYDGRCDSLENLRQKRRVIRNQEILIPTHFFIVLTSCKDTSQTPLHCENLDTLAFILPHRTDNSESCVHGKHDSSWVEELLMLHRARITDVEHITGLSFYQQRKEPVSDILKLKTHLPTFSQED
Experiment: ENPP1 enzyme assay with AMP-pNP substrate (hydrolysis of ATP analog)
Assay type: biochemical
Conditions: AMP-pNP substrate (ATP analog); Ki from IC50 by Cheng-Prusoff; read-out: ENPP1 Inhibition _AMP-pNP: Ki
pKi: −log10 of the molar value.
Value type: pKi

Please review the entries below; each comes with its answer.
>  <Compound>
COc1ccc2c(NCc3ccc(NS(N)(=O)=O)cc3)ccnc2c1 [Example 267]

>  <Value type>
pKi

>  <Result>
6.00 to 7.00

$$$$
>  <Compound>
COc1cc2ncnc(NCCc3ccc(NS(N)(=O)=O)cc3)c2cc1OC [Example 156]

>  <Value type>
pKi

>  <Result>
6.00 to 7.00

$$$$
>  <Compound>
COc1cc2ncnc(N3CCC(CCn4nnc(N)n4)CC3)c2cc1OC [Example 195]

>  <Value type>
pKi

>  <Result>
< 6.00

$$$$
>  <Compound>
COc1cc2nc(N)nc(N3CCC(CCNS(N)(=O)=O)CC3)c2cc1OC [Example 1]

>  <Value type>
pKi

>  <Result>
6.00 to 7.00

$$$$
>  <Compound>
COc1cc2nccc(Oc3ccc(S(N)(=O)=O)cc3)c2cc1F [Example 74]

>  <Value type>
pKi

>  <Result>
> 7.00

$$$$
>  <Compound>
COc1cc2nccc(Nc3ccc(NS(N)(=O)=O)cc3)c2cc1OC [Example 134]

>  <Value type>
pKi

>  <Result>
< 6.00

$$$$
>  <Compound>
COc1cc2nccc(Oc3ccc(N(O)C=O)cc3)c2cc1OC [Example 292]

>  <Value type>
pKi

>  <Result>
< 6.00

$$$$
>  <Compound>
COc1ccc2c(Oc3ccc(NS(N)(=O)=O)cc3)c(C(F)(F)F)cnc2c1 [Example 407]

>  <Value type>
pKi

>  <Result>
< 6.00

$$$$
>  <Compound>
COc1cc2ncc(C)c(-c3ccc4c(c3)CN(S(N)(=O)=O)CC4)c2cc1OC [Example 60]

>  <Value type>
pKi

>  <Result>
> 7.00

$$$$
>  <Compound>
COc1cc2ncnc(-c3ccc4c(c3)CCN(S(N)(=O)=O)C4)c2cc1OC [Example 121]

>  <Value type>
pKi

>  <Result>
< 6.00

$$$$

Please give pKi, item by item, for the list that follows.
1. COc1ccc2c(-c3ccc4c(c3)CN(S(N)(=O)=O)CC4)ccnc2c1 [Example 305]
2. COc1ccc2c(Oc3cnc(NS(N)(=O)=O)nc3)ccnc2c1 [Example 224]

Completion:
["6.00 to 7.00", "6.00 to 7.00"]

Please give pKi, item by item, for the list that follows.
1. COc1ccc2c(NCc3ccc(S(N)(=O)=O)cc3)ccnc2c1 [Example 293]
2. COc1cc2nccc(Oc3ccc(NS(N)(=O)=O)cc3)c2cc1OC [Example 125]
3. COc1cc2nccc(N3CCC(CCNS(N)(=O)=O)CC3)c2cn1 [Example 204]
4. COc1nc2ncnc(N3CCC(CCNS(N)(=O)=O)CC3)c2n1C [Example 218]

Completion:
["> 7.00", "< 6.00", "< 6.00", "< 6.00"]
